# assay-target: human activated blood coagulation factor X (Homo sapiens, UniProt P00742)
# Sequence (P00742 235-488 limits assumed): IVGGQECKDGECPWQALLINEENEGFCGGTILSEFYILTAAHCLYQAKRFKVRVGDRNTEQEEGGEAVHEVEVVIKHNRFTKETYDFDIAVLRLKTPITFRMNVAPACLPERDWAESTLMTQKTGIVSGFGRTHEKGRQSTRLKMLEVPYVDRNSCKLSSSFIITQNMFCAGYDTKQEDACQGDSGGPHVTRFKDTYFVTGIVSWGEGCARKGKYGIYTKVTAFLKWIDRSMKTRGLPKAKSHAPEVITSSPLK
# Sequence (P00742 41-179 partner limits assumed): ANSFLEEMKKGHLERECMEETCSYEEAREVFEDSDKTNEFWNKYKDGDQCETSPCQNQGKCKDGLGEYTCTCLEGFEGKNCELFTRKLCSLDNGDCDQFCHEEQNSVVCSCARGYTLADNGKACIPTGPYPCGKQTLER
# test-details: Measurement of inhibitory activity for activated blood coagulation factor X (S-2222 chromogenic substrate)
# experimental-parameters: S-2222 substrate, pH 8.4, 10 minutes at 37° C., absorbance 405 nm
pIC50: −log10 of the molar value.
endpoint: pIC50

{"smi": "CC(C)c1ccc(CCN(C)S(=O)(=O)c2cc(C(=N)N)ccc2O)cc1", "assay-target": "human activated blood coagulation factor X (Homo sapiens, UniProt P00742)", "measured-number": 6.80}

P. CC(C)c1ccc(CCN(CC(=O)N2CCOCC2)S(=O)(=O)c2cc(C(=N)N)ccc2O)cc1
Q. N=C(N)c1ccc(O)c(S(=O)(=O)NCCc2ccc(-c3ccccc3S(N)(=O)=O)cc2)c1
**Query** Between the entries labelled P and Q , which has a larger pIC50 value on record? To answer, give the label that identifies your chosen option.
**Result** Q
